Source listed as ChEMBL document CHEMBL4033751.

experiment: Cytotoxicity in mouse B16 cells assessed as cell viability at 10 uM by MTT assay; format: cell-based; settings: read-out: Activity
Each entry below lists one item and its recorded viability at 10 µM value.
measurement-kind: viability at 10 µM (%)

{"substance-smiles": "O=C(/C=C/c1ccc(O)c(O)c1)Nc1cccc([N+](=O)[O-])c1", "reading-unit": "%", "numeric-readout": 48}
{"substance-smiles": "O=C(/C=C/c1ccc(O)c(O)c1)OC1CCCCC1", "reading-unit": "%", "numeric-readout": 30}
{"substance-smiles": "Cc1cccc(CNC(=O)/C=C/c2ccc(O)c(O)c2)c1", "reading-unit": "%", "numeric-readout": 20}
{"substance-smiles": "O=C(/C=C/c1ccc(O)c(O)c1)Nc1ccccc1", "reading-unit": "%", "numeric-readout": 21}
{"substance-smiles": "O=C(/C=C/c1ccc(O)c(O)c1)NCc1cccc(Cl)c1", "reading-unit": "%", "numeric-readout": 22}
{"substance-smiles": "Cc1ccc(CNC(=O)/C=C/c2ccc(O)c(O)c2)cc1", "reading-unit": "%", "numeric-readout": 20}
{"substance-smiles": "O=C(/C=C/c1ccc(O)c(O)c1)NC1CCCCC1", "reading-unit": "%", "numeric-readout": 23}
